Every entry's value here was drawn from patent US9156796B2.

target: human apelin receptor (Homo sapiens, UniProt P35414); construct: expressed in transfected cells; test: Determination of agonism on the human apelin receptor by a calcium fluorescence assay (FLIPR); format: cell-based; details: HEK293 cells stably transfected with human apelin receptor and Giaq protein, Fluo-4 calcium fluorescence, read-out: EC50 (APJ agonism)
pEC50: −log10 of the molar value.
Property measured: pEC50

{"Record smiles": "CC(C)C[C@H](NC(=O)c1ccc2c(c1)nc(Cc1cccs1)n2C1CCCCCC1)C(=O)O", "pEC50": 6.24}
{"Record smiles": "CCC(CC)n1c(Cc2cccs2)nc2cc(C(=O)N[C@H](CO)C3CCCCC3)ccc21", "pEC50": 5.70}

a. CCC(CC)n1c(Cc2cccs2)nc2cc(C(=O)N[C@@H](CC(C)C)CS(=O)(=O)NC)ccc21
b. CCC(CC)n1c(Cc2cccs2)nc2cc(C(=O)N[C@@H](CC(C)C)C(=O)NCCCN3CCN(CC)CC3)ccc21
Q) Which has the higher pEC50, a or b ? Answer format: the label of the selected item.
A) b

====

Target: human apelin receptor (Homo sapiens, UniProt P35414)
Construct: expressed in transfected cells
Sequence (P35414 1-380): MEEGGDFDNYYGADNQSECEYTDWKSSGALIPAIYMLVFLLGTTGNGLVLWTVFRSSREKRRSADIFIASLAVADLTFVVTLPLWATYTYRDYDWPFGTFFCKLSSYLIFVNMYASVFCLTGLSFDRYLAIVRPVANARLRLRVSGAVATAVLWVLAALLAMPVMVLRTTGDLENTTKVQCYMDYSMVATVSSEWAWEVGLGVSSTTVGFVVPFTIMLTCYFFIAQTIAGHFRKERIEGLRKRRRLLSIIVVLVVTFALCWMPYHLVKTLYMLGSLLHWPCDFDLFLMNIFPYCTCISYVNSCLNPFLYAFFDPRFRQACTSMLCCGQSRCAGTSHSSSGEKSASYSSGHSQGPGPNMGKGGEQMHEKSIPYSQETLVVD
Assay: Determination of agonism on the human apelin receptor by a calcium fluorescence assay (FLIPR)
Format: cell-based
Conditions: HEK293 cells stably transfected with human apelin receptor and Giaq protein, Fluo-4 calcium fluorescence, read-out: EC50 (APJ agonism)
Property measured: EC50 (µM)

{"Compound": "CCC(CC)n1c(Cc2cccs2)nc2cc(C(=O)N[C@@H](CC(C)C)C(=O)NC3CCN(CC(C)C)CC3)ccc21", "Reported": 0.331}
{"Compound": "CCC(CC)n1c(Cc2cccs2)nc2cc(C(=O)N[C@@H](CC(C)C)C(=O)NCC3CCCCO3)ccc21 (stereo partly shown)", "Reported": 2.23}

P. CCC(CC)n1c(Cc2cccs2)nc2cc(C(=O)NC(CC(C)C)c3nccs3)ccc21 (stereo not shown)
Q. CCC(CC)n1c(Cc2cccs2)nc2cc(C(=O)N[C@@H](CC(C)C)C(=O)N3CCC(COC)CC3)ccc21
R. CCC(CC)n1c(Cc2cccs2)nc2cc(C(=O)N[C@@H](CC(C)C)C(=O)N3CCN(c4ccccc4)CC3)ccc21
S. CCC(CC)n1c(Cc2cccs2)nc2cc(C(=O)N[C@@H](CC(C)C)C(=O)NCC3CN(C)CCO3)ccc21 (stereo partly shown)
Q) Reorder the items by EC50, least to greatest. Answer by listing the labels in the requested order.
A) S, R, Q, P
(S: 0.419 µM, R: 1.3 µM, Q: 2.18 µM, P: 16.9 µM)

====

biological target: human apelin receptor (Homo sapiens, UniProt P35414); construct: expressed in transfected cells; assay: Determination of agonism on the human apelin receptor by a calcium fluorescence assay (FLIPR); format: cell-based; details: HEK293 cells stably transfected with human apelin receptor and Giaq protein, Fluo-4 calcium fluorescence, read-out: EC50 (APJ agonism)
Property measured: EC50 (µM)

{"Compound": "CC(C)C[C@H](NC(=O)c1ccc2c(c1)nc(CC1CCCC1)n2C1CCCCC1)C(=O)O", "Reported": 12.8}
{"Compound": "CCC(CC)n1c(Cc2cccs2)nc2cc(C(=O)N[C@@H](CC(C)C)C(=O)NCCOC(C)C)ccc21", "Reported": 3.57}
{"Compound": "CCC(CC)n1c(Cc2cscn2)nc2cc(C(=O)N[C@@H](CC(C)C)C(=O)O)ccc21", "Reported": 2.95}
{"Compound": "CC(C)C[C@@H](CC(=O)O)NC(=O)c1ccc2c(c1)nc(Cc1ccco1)n2C1CCCCC1C (single isomer, unassigned) [Example 435]", "Reported": 0.226}

a. CCC(CC)n1c(Cc2cccs2)nc2cc(C(=O)N[C@@H](CC(C)C)C(=O)NC3COC4(CCCC4)C3)ccc21 (stereo partly shown)
b. CCC(CC)n1c(CC2CCCCC2)nc2cc(C(=O)N[C@@H](CC(C)C)C(=O)O)ccc21
c. CCOC[C@H](CC(C)C)NC(=O)c1ccc2c(c1)nc(Cc1cccs1)n2C(CC)CC
Q) Reorder the items by EC50, least to greatest. Answer by listing the labels in the requested order.
A) c, a, b

====

biological target: human apelin receptor (Homo sapiens, UniProt P35414); construct: expressed in transfected cells; assay: Determination of agonism on the human apelin receptor by a calcium fluorescence assay (FLIPR); type: cell-based; conditions: HEK293 cells stably transfected with human apelin receptor and Giaq protein, Fluo-4 calcium fluorescence, read-out: EC50 (APJ agonism)
Property measured: EC50 (nM)

Consider the worked cases shown below.
{"Compound": "CC(C)C[C@@H](CC(=O)O)NC(=O)c1ccc2c(c1)nc(Cc1ccco1)n2C1CCCCC1C (single isomer, unassigned) [Example 434]", "Units": "nM", "EC50": 425}
{"Compound": "CC(C)C[C@@H](CC(=O)O)NC(=O)c1ccc2c(c1)nc(Cc1cccs1)n2C1CCCCC1C (single isomer, unassigned) [Example 437]", "Units": "nM", "EC50": 4910}
{"Compound": "CCC(CC)n1c(Cc2ccco2)nc2cc(C(=O)NC(CC(=O)O)C(C)C)ccc21 (stereo not shown)", "Units": "nM", "EC50": 2430}
{"Compound": "CC(C)C[C@@H](CC(=O)O)NC(=O)c1ccc2c(c1)nc(Cc1ccco1)n2C1CCCCC1C (single isomer, unassigned) [Example 433]", "Units": "nM", "EC50": 1720}

a. CCC(CC)n1c(Cc2cccs2)nc2cc(C(=O)NC(CC)(C(=O)O)c3ccccc3)ccc21 (stereo not shown)
b. CC(C)C[C@H](NC(=O)c1ccc2c(c1)nc(Cc1ccco1)n2C1CCCCC1C)C(=O)O (stereo partly shown) [Example 86]
c. CC(C)C[C@H](NC(=O)c1ccc2c(c1)nc(Cc1cccs1)n2-c1ccccc1)C(=O)O
Q) # rank_down: sort by EC50, max first Answer by listing the labels in the requested order.
A) a, c, b
(a: 44300 nM, c: 700 nM, b: 88 nM)

====

Molecular target: human apelin receptor (Homo sapiens)
Construct: expressed in transfected cells
Test: Determination of agonism on the human apelin receptor by a calcium fluorescence assay (FLIPR)
Type: cell-based
Conditions: HEK293 cells stably transfected with human apelin receptor and Giaq protein, Fluo-4 calcium fluorescence, read-out: EC50 (APJ agonism)
Protocol: Determination of Agonism on the Human Apelin Receptor by a Calcium Fluorescence Assay (FLIPR) The assay is based on the detection of intracellular calcium changes detected by the selective, calcium-chelating dye Fluo-4 (Molecular Probes). A large fluorescence intensity increase is observed upon calcium association with Fluo-4. […] EC-50 values for apelin-13 and the apelin receptor compounds described in this patent were determined by standard algorithms using a specific software package.
Property measured: EC50 (nM)

{"Molecule": "C[C@@H]1CCCC[C@H]1n1c(Cc2cccs2)nc2cc(C(=O)NC(CC3CCC(C)(C)CC3)C(=O)O)ccc21 (stereo partly shown) [Example 33]", "System tested": "human apelin receptor (Homo sapiens)", "EC50 [nM]": 3210}

P. CCC(C)Cn1c(CC2CCCC2)nc2cc(C(=O)N[C@@H](CC(C)C)C(=O)O)ccc21 (stereo partly shown) [Example 109]
Q. CCC(CC)n1c(Cc2cccs2)nc2cc(C(=O)N[C@@H](CC(C)C)C(=O)N3CC4CC3CN4CC)ccc21 (stereo partly shown) [Example 347]
R. CCC(C)Cn1c(CC2CCCCC2)nc2cc(C(=O)N[C@@H](CC3CCCCC3)C(=O)O)ccc21 (stereo partly shown) [Example 133]
Q) # rank_down: sort by EC50, max first Answer by listing the labels in the requested order.
A) P, R, Q

====

Target: human apelin receptor (Homo sapiens)
Construct: expressed in transfected cells
Sequence (P35414 1-380): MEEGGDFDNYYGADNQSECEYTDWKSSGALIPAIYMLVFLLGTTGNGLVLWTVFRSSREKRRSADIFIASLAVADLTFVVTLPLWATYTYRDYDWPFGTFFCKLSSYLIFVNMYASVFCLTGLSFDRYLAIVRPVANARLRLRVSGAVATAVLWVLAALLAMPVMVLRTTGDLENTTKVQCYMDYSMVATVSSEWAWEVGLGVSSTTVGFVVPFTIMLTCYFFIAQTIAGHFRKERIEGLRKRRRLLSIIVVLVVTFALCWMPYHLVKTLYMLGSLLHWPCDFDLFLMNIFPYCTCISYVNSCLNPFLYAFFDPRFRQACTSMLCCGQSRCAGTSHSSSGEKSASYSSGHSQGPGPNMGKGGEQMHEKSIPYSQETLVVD
Experiment: Determination of agonism on the human apelin receptor by a calcium fluorescence assay (FLIPR)
Format: cell-based
Settings: HEK293 cells stably transfected with human apelin receptor and Giaq protein, Fluo-4 calcium fluorescence, read-out: EC50 (APJ agonism)
Property measured: EC50 (nM)

{"Compound": "CCC(CC)n1c(Cc2cccs2)nc2cc(C(=O)NC(CCO)c3ccsc3)ccc21 (centres unmarked) [Example 212]", "Property measured": "EC50", "Units": "nM", "Reported": 9290}
{"Compound": "CC(C)C[C@H](NC(=O)c1ccc2c(c1)nc(Cc1cccs1)n2C1CCCCC1C)C(=O)O (single isomer, unassigned) [Example 413]", "Property measured": "EC50", "Units": "nM", "Reported": 1020}
{"Compound": "CCC(CC)n1c(Cc2cccs2)nc2cc(C(=O)N[C@@H](CC(C)C)C(=O)NCc3cccc(N(C)C)c3)ccc21 [Example 252]", "Property measured": "EC50", "Units": "nM", "Reported": 6990}

P. C[C@@H]1CCCC[C@H]1n1c(Cc2cccs2)nc2cc(C(=O)N[C@H](CC(=O)O)CC3CCCC3)ccc21 [Example 61]
Q. CCC(CC)n1c(Cc2cccs2)nc2cc(C(=O)NC(CC(C)C)C(C)(C)C(=O)O)ccc21 (single isomer, unassigned) [Example 465]
R. CCC(CC)n1c(Cc2cccs2)nc2cc(C(=O)N[C@@H](CC(C)C)C(=O)NC3CCN(Cc4ccccn4)CC3)ccc21 [Example 295]
S. CCC(CC)n1c(Cc2ccccc2)nc2cc(C(=O)N[C@H](CC(=O)O)CC(C)C)ccc21 [Example 157]
Q) # rank_down: sort by EC50, max first Answer by listing the labels in the requested order.
A) S, R, Q, P

A. CCC(CC)n1c(Cc2cccs2)nc2cc(C(=O)N[C@@H](CC(C)C)C(=O)NC3CCN(Cc4cccc(F)c4)CC3)ccc21 [Example 301]
B. CCC(CC)n1c(Cc2cccs2)nc2cc(C(=O)N[C@@H](CC(C)C)C(=O)NCCCN3CCN(C)CC3)ccc21 [Example 227]
Q) In terms of reported EC50, does A or B have the smaller number? Answer format: the label of the selected item.
A) B

A. CCC(CC)n1c(Cc2cccs2)nc2cc(C(=O)N[C@H](CC(=O)O)CC(C)C)ccc21 [Example 107]
B. CCC(CC)n1c(Cc2cccs2)nc2cc(C(=O)N[C@@H](CC3CCCCC3)[C@@H](O)CC(=O)O)ccc21 [Example 79]
C. CC(C)C[C@H](NC(=O)c1ccc2c(c1)nc(Cc1cccs1)n2C1CCCCC1)C(=O)O [Example 108]
D. CCC(CC)n1c(Cc2cccs2)nc2cc(C(=O)N[C@@H](CC(C)C)C(=O)N3CCCN(Cc4c(F)cccc4Cl)CC3)ccc21 [Example 274]
E. CCC(CC)n1c(Cc2cscn2)nc2cc(C(=O)N[C@H](COC)CC(C)C)ccc21 [Example 206]
Q) # rank_down: sort by EC50, max first Answer by listing the labels in the requested order.
A) D, E, C, B, A
(D: 12600 nM, E: 2300 nM, C: 1060 nM, B: 80 nM, A: 47 nM)
